Source: ChEMBL document CHEMBL1140311

target: UniProt P04150; experiment: Glucocorticoid receptor mediated transrepression of NFkB reporter gene in human A549 lung epithelial cells; format: functional, cell-based
endpoint: IC50 (nM)
Note: unit nM is implicit; provide only the numeric part.

q: Entry under review: Cc1noc(=O)c2ccc(NC(=O)C(O)(CC3CCCCc4ccccc43)C(F)(F)F)cc12 (stereo in doubt; 15a (D1E2)) . Reported IC50?
a: 145

###

We begin with a simple list: items and their reported IC50.
molecular target: Glucocorticoid receptor (Homo sapiens, UniProt P04150); assay: Antagonist activity for Glucocorticoid receptor in MMTV transactivation assay in human A549 lung epithelial cells at 10 uM; format: functional, cell-based
Report as a plain number; the unit µM is understood.

Observe how each entry below is paired with its result.
q: Give its IC50 value. Item: Cc1noc(=O)c2ccc(NC(=O)C(O)(CC3CCc4ccccc43)C(F)(F)F)cc12 (stereo not given)
a: 4.79

q: Quick one: IC50 of Cc1noc(=O)c2ccc(NC(=O)C(O)(CC3CCCCc4ccccc43)C(F)(F)F)cc12 (stereo in doubt; 15a (D1E2)) ?
a: 0.708

q: Any idea what IC50 was measured for Cc1noc(=O)c2ccc(NC(=O)C(O)(CC3CCCc4ccccc43)C(F)(F)F)cc12 (stereo in doubt; 9d (D2E2)) ?
a: 3.89

q: State the recorded IC50 for this entry: Cc1noc(=O)c2ccc(NC(=O)C(O)(CC3CCCc4ccccc43)C(F)(F)F)cc12 (stereo in doubt; 9e (D1E1))
a: 0.562

---
q: For the molecule shown here, Cc1noc(=O)c2ccc(NC(=O)C(O)(CC3CCCCc4ccccc43)C(F)(F)F)cc12 (stereo in doubt; 15b (D2E1)) , give the reported IC50.
a: 1

###

biological target: Glucocorticoid receptor (Homo sapiens) (UniProt P04150); assay: Glucocorticoid receptor mediated transrepression of NFkB reporter gene in human A549 lung epithelial cells at 10 uM; assay type: functional, cell-based
Sequence (P04150 whole entry): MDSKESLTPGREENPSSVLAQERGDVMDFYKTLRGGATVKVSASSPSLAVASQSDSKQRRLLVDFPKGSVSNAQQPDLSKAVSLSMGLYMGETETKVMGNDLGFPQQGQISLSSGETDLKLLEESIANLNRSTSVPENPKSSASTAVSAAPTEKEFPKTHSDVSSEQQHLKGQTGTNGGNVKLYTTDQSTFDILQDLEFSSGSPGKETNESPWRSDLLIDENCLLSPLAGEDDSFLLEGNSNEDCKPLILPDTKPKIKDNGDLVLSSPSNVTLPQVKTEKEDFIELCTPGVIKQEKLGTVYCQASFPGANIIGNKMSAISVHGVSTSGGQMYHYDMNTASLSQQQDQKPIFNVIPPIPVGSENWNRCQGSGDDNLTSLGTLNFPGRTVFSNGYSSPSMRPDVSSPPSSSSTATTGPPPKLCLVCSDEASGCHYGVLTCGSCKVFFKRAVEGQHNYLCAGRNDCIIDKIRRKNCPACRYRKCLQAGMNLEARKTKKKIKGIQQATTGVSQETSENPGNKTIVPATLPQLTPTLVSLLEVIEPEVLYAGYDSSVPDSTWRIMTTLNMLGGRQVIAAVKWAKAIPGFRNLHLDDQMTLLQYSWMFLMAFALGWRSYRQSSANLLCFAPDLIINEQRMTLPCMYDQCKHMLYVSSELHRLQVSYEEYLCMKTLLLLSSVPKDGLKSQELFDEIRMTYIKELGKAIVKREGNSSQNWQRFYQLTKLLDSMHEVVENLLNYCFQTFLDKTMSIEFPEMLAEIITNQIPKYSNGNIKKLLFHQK
endpoint: Max inhibition (%)
Give just the numeric value; % need not be written.

Examples from the recorded data:
q: # Max inhibition lookup, item Cc1noc(=O)c2ccc(NC(=O)C(O)(CC3CCc4ccccc43)C(F)(F)F)cc12 (stereo not given)
a: 73

q: What value of Max inhibition has been reported for the following compound? Cc1noc(=O)c2ccc(NC(=O)C(O)(CC3CCCCc4ccccc43)C(F)(F)F)cc12 (stereo in doubt; 15a (D1E2))
a: 60

q: What does the record list as Max inhibition for Cc1noc(=O)c2ccc(NC(=O)C(O)(CC3CCCc4ccccc43)C(F)(F)F)cc12 (stereo in doubt; 9d (D2E2)) ?
a: 23

q: Bench note: what Max inhibition did Cc1noc(=O)c2ccc(NC(=O)C(O)(CC3CCCCc4ccccc43)C(F)(F)F)cc12 (stereo in doubt; 15b (D2E1)) show?
a: 24

Now let's try a different one.
q: If you can, please state the reported Max inhibition value of Cc1noc(=O)c2ccc(NC(=O)C(O)(CC3CCCc4ccccc43)C(F)(F)F)cc12 (stereo in doubt; 9e (D1E1)) .
a: 51

###

Listing of recorded Log IC50 by entry.
test: Binding affinity for glucocorticoid receptor
Give the value as a plain number.

Take a look at these entries with their results.
q: Fill in: Log IC50 of C[C@@H]1C[C@H]2[C@@H]3CCC4=CC(=O)C=C[C@]4(C)[C@@]3(F)[C@@H](O)C[C@]2(C)[C@@]1(O)C(=O)CO [DEXAMETHASONE] is ___
a: -8.1

q: Sample Cc1noc(=O)c2ccc(NC(=O)C(O)(CC3CCCc4ccccc43)C(F)(F)F)cc12 (stereo in doubt; 9d (D2E2)) — what was its Log IC50?
a: -7.15

q: Name the reported Log IC50 value associated with the molecule Cc1noc(=O)c2ccc(NC(=O)C(O)(CC3CCCCc4ccccc43)C(F)(F)F)cc12 (stereo in doubt; 15a (D1E2))
a: -8.57

q: I have this molecule here, Cc1noc(=O)c2ccc(NC(=O)C(O)(CC3CCCc4ccccc43)C(F)(F)F)cc12 (stereo in doubt; 9e (D1E1)) , and I need its recorded Log IC50.
a: -8.08

q: # input molecule: Cc1noc(=O)c2ccc(NC(=O)C(O)(CC3CCc4ccccc43)C(F)(F)F)cc12 (stereo unspecified) ; wanted: its Log IC50
a: -7.81

Attention now turns to another entry.
q: Any idea what Log IC50 was measured for Cc1noc(=O)c2ccc(NC(=O)C(O)(CC3CCCCc4ccccc43)C(F)(F)F)cc12 (stereo in doubt; 15b (D2E1)) ?
a: -7.75
